Value source: patent US7405205B2

Documented Reduced relative colony forming efficiency, expressed as % inhibition, MIA PaCa-2 across a set of sequences
tested on: MIA PaCa-2 pancreatic cell carcinoma; assay: Relative colony forming efficiency after antisense treatment (Table 13); assay type: cell-based, human; conditions: 0.2 μM antisense oligodeoxyribonucleotide phosphorothioate; MIA PaCa-2 cells; averages of 2-8 determinations
Strand notation (5' to 3'): a small letter for the sugar, then the base; units joined by * are phosphorothioate-linked, units joined directly phosphodiester-linked; [ ] holds rarer units or linkages, { } end groups; capitals alone tell only the bases. d = 2'-deoxy (DNA)
VALUE TYPE: Reduced relative colony forming efficiency, expressed as % inhibition, MIA PaCa-2 (%)

SEQUENCE CHAIN | ASSAY TARGET | READOUT NUMBER
GAGCAGCCAGGACAGGACGG (antisense dG*dA*dG*dC*dA*dG*dC*dC*dA*dG*dG*dA*dC*dA*dG*dG*dA*dC*dG*dG) [AS-II-151-20] | MIA PaCa-2 pancreatic cell carcinoma | 75.38
ACCCTTCCCATTGGCTGCGC (dA*dC*dC*dC*dT*dT*dC*dC*dC*dA*dT*dT*dG*dG*dC*dT*dG*dC*dG*dC; antisense) [AS-II-6-20] | MIA PaCa-2 pancreatic cell carcinoma | 95.15
GCACATCTTCAGTTCATTTA (DNA, all phosphorothioate, methylation of C not given here) [AS-II-1362-20] | MIA PaCa-2 pancreatic cell carcinoma | 44.14
